biological target: EGFR Exon19Del/T790M (Homo sapiens, UniProt P00533, DEL746-750/T790M); construct: purchased Carna Bio; experiment: Inhibition of EGFR Exon19Del/T790M biochemical enzymatic activity (HTRF); conditions: EGFR Exon19Del/T790M, 1 mM ATP, 1 h at room temperature, read-out: IC50 @Del19-T790M
Sequence (P00533 with tags, fused parts or gaps DEL746-750/T790M limits assumed): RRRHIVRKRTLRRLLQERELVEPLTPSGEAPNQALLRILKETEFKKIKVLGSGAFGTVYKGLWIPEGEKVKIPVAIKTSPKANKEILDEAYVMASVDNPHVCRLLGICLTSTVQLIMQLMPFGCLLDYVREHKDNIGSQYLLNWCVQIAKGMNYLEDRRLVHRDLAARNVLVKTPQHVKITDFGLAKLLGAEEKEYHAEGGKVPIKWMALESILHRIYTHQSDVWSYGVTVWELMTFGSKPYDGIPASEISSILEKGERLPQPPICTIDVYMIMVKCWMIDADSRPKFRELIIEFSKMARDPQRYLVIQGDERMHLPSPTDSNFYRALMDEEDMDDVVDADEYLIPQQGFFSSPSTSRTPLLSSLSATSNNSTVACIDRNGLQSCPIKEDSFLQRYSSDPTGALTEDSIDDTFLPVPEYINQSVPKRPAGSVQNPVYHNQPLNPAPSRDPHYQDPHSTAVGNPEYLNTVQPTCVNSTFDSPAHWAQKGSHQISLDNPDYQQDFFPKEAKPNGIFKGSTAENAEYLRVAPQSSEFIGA
# strict inequality: IC50 < 0.01 µM yields criterion met, everything else yields criterion not met

MOLECULE	GROUP_LABEL
Cc1cc2cc(n1)-c1cnn(C)c1OCCN1CC3CCC(C3)(C1)n1c(nc3ccc(N4CCC(N5CCN(C)CC5)C4)cc31)NC2=O (single isomer, unassigned) [Example B49A]	criterion not met
Cc1cc2cc(n1)-c1cnn(C)c1OCCCCCn1c(nc3ccc4c(c31)CCNC4)NC2=O	criterion met
Cc1cc2cc(n1)-c1cnn(C)c1OCCN1CC3CCC(CC3)(C1)n1c(nc3ccc(N4CC5CN(C)CC5C4)cc31)NC2=O (stereo not drawn)	criterion not met
Cc1cc2cc(n1)-c1cnn(C)c1OCCN1CC3CCC(C3)(C1)n1c(nc3ccc(N4CCC(N5CCOCC5)C4)cc31)NC2=O (single isomer, unassigned) [Example B44B]	criterion met
Cc1cc2cc(n1)-c1cnn(C)c1OCCN1CC3CCC(C3)(C1)n1c(nc3ccc(N4CCC(N5CCOCC5)C4)cc31)NC2=O (single isomer, unassigned) [Example B44A]	criterion not met
Cc1cc2cc(n1)-c1cnn(C)c1OCCN1CC3CCC(C3)(C1)n1c(nc3ccccc31)NC2=O (single isomer, unassigned) [Example B8A]	criterion not met
Cc1cc2cc(n1)-c1cnn(C)c1OCCC[C@@H](C)Cn1c(nc3ccc4c(c31)CCN(C1COC1)C4)NC2=O	criterion met
Cc1cc2cc(n1)-c1cnn(C)c1OCCN1CC3CCC(C3)(C1)n1c(nc3ccc(N4CCC(N5CCOCC5)C4)cc31)NC2=O (single isomer, unassigned) [Example B44B1]	criterion not met
CCN1CCN(c2ccc3nc4n(c3c2)C23CCC(CN(CCOc5c(cnn5C)-c5cc(cc(C)n5)C(=O)N4)C2)C3)CC1 (single isomer, unassigned) [Example B56A]	criterion not met
Cc1cc2cc(n1)-c1cnn(C)c1OCCN1CC3CCC(C3)(C1)n1c(nc3ccc(N4CC(N5CCOCC5)C4)cc31)NC2=O (single isomer, unassigned) [Example B48A]	criterion not met
Cc1cc2cc(n1)-c1cnn(C)c1OCCN1CC3CCC(CC3)(C1)n1c(nc3ccc(N4CCC5(CC4)CCN5C)cc31)NC2=O	criterion not met

====

target: EGFR wild type (Homo sapiens, UniProt P00533); construct: purchased Carna Bio; experiment: Inhibition of EGFR wild type biochemical enzymatic activity (HTRF); conditions: EGFR wild type, 1 mM ATP, 1 h at room temperature, read-out: IC50 @WT
Sequence (P00533 25-1210): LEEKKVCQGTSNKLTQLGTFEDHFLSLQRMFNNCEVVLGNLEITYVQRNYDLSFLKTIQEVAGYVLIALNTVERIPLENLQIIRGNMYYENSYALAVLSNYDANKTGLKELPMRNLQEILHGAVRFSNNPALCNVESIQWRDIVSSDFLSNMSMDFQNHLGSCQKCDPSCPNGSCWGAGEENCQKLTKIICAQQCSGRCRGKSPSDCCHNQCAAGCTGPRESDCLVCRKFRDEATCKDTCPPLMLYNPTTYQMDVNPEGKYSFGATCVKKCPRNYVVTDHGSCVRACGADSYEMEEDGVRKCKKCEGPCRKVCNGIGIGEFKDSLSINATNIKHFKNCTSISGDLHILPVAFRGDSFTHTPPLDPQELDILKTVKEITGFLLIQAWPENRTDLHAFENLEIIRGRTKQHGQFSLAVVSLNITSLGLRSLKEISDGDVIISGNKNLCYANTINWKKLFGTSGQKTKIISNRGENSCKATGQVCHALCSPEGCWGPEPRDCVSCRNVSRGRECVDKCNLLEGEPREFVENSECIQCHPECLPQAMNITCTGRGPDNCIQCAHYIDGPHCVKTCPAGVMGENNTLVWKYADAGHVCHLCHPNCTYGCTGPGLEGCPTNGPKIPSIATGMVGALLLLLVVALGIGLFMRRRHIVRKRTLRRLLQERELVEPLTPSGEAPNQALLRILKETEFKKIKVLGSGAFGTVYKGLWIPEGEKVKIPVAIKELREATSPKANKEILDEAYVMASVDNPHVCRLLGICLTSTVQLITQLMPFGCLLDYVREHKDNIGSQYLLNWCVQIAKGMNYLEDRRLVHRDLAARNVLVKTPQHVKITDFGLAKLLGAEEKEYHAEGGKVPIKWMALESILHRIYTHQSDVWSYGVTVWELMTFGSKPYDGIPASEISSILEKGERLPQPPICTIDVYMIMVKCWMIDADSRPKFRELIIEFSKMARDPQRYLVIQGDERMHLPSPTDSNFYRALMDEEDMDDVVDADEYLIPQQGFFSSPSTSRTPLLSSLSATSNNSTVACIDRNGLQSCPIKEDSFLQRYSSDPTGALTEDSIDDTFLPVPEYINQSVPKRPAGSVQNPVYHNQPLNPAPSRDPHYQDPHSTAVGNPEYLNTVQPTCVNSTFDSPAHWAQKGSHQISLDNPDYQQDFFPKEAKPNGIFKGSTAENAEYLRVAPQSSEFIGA
IC50: recorded values

MOLECULE	IC50
Cc1cc2cc(n1)-c1cnn(C)c1OCCN1CC3CCC(C3)(C1)n1c(nc3ccc(N4CCOCC4)cc31)NC2=O (single isomer, unassigned) [Example B10A]	3.37 µM
Cc1cc2cc(n1)-c1cnn(C)c1OCCN1CC3CCC(C3)(C1)n1c(nc3ccc(N4CCN(C)CC4)cc31)NC2=O (single isomer, unassigned) [Example B9A]	> 5 µM
Cc1cc2cc(n1)-c1cnn(C)c1OCCN1CC3CCC(CC3)(C1)n1c(nc3ccc(N4CC[C@@H](N(C)C)C4)cc31)NC2=O [Example B29]	> 5 µM
Cc1cc2cc(n1)-c1cnn(C)c1OCCN1CC3CCC(C3)(C1)n1c(nc3ccc(N4CC(N5CCOCC5)C4)cc31)NC2=O (single isomer, unassigned) [Example B48B]	2.97 µM
Cc1cc2cc(n1)-c1cnn(C)c1OCCCCCn1c(nc3ccc4c(c31)CCN(C1COC1)C4)NC2=O [Example B17]	> 5 µM
Cc1cc2cc(n1)-c1cnn(C)c1OCCN1CC3CCC(C3)(C1)n1c(nc3ccc(N4CCOCC4)cc31)NC2=O (single isomer, unassigned) [Example B10B]	> 5 µM
